Could you please report measured pIC50 for the items listed next?
- Target of assay: hERG (Homo sapiens, UniProt Q12809)
- Construct: stably transfected with full length hERG cDNA
- Sequence (Q12809 whole entry): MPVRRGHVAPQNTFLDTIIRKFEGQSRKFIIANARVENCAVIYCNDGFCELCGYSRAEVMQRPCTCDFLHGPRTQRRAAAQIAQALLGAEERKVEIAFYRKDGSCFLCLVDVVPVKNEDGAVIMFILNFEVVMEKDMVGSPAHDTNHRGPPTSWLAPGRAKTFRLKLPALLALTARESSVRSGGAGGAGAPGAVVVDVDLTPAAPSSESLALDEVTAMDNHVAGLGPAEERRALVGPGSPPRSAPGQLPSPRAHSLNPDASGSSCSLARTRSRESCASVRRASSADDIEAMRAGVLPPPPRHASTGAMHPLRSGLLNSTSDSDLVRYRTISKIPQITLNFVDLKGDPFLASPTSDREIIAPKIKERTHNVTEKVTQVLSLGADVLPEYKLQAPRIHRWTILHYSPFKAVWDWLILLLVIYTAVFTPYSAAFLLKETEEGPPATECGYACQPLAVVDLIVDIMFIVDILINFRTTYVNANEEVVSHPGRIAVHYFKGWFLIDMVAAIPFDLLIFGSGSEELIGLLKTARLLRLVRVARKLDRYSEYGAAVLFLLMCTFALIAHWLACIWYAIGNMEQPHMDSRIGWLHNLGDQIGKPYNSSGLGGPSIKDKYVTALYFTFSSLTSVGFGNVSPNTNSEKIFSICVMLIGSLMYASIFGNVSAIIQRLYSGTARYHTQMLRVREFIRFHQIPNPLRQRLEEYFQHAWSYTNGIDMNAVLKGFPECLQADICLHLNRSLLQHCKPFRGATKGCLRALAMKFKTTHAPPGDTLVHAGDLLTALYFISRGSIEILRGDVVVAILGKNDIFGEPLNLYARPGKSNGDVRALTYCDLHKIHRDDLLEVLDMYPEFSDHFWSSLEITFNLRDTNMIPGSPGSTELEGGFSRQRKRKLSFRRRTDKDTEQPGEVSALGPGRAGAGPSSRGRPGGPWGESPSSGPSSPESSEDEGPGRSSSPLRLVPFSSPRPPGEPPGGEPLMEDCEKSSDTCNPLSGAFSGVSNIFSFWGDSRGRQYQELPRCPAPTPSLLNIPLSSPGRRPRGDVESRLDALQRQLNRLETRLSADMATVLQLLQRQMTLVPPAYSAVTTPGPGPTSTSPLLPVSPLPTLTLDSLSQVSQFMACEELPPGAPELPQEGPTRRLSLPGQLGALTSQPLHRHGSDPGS
- Assay details: hERG in-vitro assay, IonWorks Barracuda population patch clamp
- Reported conditions: hERG/HEK293 cells; hERG current block, 5 minutes exposure
- Procedure: Stock solutions of compounds of the invention and positive control (cisapride; 0.001-3 μM) were prepared in DMSO. Stock solutions were diluted in a HEPES-buffered physiological saline solution. Test and control solutions contained 0.3% DMSO. […] The test article effects were evaluated using IonWorks Barracuda™ systems (Molecular Devices Corporation, Union City, CA). […]
Answers are plain numbers, as −log10 of the molar value.

>>> obs_value("O=C(c1ccc(-c2ccc(C(F)F)cc2)cc1)N1CCC(c2ncc[nH]2)CC1")
5.56
>>> obs_value("O=C(c1ccc(-c2cccc(Cl)c2)cc1)N1CCC(c2ncc[nH]2)CC1")
5.56
>>> obs_value("O=C(c1ccc(-c2cccc3[nH]ccc23)cc1)N1CCC(c2ncc[nH]2)CC1")
5.23
>>> obs_value("O=C(c1ccc(-c2ccc(C(F)(F)F)cc2)cc1)N1CCC(c2ncc[nH]2)CC1")
5.46
>>> obs_value("O=C(c1ccc(-c2ccc(C(F)(F)F)s2)cc1)N1CCC(c2ncc[nH]2)CC1")
5.55
>>> obs_value("Cc1cnc(C2CCN(C(=O)c3ccc(-c4c[nH]c5ccccc45)cc3)CC2)[nH]1")
5.18

Please give pIC50 for each item listed below.
1. O=C(c1ccc(Oc2ccccc2)cc1)N1CCC(c2ncc[nH]2)CC1
2. O=C(c1ccc2c(ccn2-c2ccccc2)c1)N1CCC(c2ncc[nH]2)CC1
3. O=C(c1ccc(-c2ccc3c(c2)OCO3)cc1)N1CCC(c2ncc[nH]2)CC1
4. O=C(c1ccc(Nc2ccccc2)cc1)N1CCC(c2ncc[nH]2)CC1

Ans:
1: 5.50; 2: 5.37; 3: 5.76; 4: 5.41

----------
- Target of assay: canine 5-HT2B receptor (Canis lupus familiaris)
- Sequence (Q50DZ8 1-434): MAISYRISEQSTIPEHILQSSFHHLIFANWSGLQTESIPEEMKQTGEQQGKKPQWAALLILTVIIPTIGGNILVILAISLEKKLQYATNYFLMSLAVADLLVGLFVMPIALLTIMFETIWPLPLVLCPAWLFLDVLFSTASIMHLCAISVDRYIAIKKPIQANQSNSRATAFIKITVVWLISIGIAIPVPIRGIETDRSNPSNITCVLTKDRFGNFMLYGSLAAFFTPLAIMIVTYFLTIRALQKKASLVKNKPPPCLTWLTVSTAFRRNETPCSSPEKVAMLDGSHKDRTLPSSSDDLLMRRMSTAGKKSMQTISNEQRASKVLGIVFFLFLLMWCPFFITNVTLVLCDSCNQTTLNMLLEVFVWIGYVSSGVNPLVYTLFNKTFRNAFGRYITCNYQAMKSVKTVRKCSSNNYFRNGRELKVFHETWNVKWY
- Assay details: Canine 5-HT2B (c5-HT2B) in-vitro assay, FLIPR calcium response
- Reported conditions: CHO-K1 cells stably expressing canine 5-HT2B receptor; inhibition of EC80 serotonin calcium response
- From the text: […]
Endpoint label: log10 of IC50 (log10 of the value in nM)
Base-10 log of IC50, unit nM.

>>> obs_value("O=C(c1ccc(-c2cccc3[nH]ccc23)cc1)N1CCC(c2ncc[nH]2)CC1")
-1.40
>>> obs_value("O=C(c1ccc(-c2ccc(C(F)(F)F)s2)cc1)N1CCC(c2ncc[nH]2)CC1")
1.31
>>> obs_value("O=C(c1ccc(Oc2ccccc2)cc1)N1CCC(c2ncc[nH]2)CC1")
-0.19
>>> obs_value("O=C(c1ccc2c(c1)oc1ccccc12)N1CCC(c2ncc[nH]2)CC1")
-0.19
>>> obs_value("O=C(c1ccc(-c2n[nH]c3ccccc23)cc1)N1CCC(c2ncc[nH]2)CC1")
-0.48

Please give log10 of IC50 for each item listed below.
1. Cc1cnc(C2CCN(C(=O)c3ccc(-c4ccc5cc[nH]c5c4)cc3)CC2)[nH]1
2. O=C(c1ccc(Nc2ccccc2)cc1)N1CCC(c2ncc[nH]2)CC1
3. Cc1c[nH]c(C2CCN(C(=O)c3ccc(-c4c[nH]c5ccc(F)cc45)cc3)CC2)n1

Ans:
[0.04, -0.38, 1.32]

Please give log10 of IC50 for each item listed below.
1. O=C(c1ccc2c(c1)[nH]c1ccccc12)N1CCC(c2ncc[nH]2)CC1
2. Cc1cnc(C2CCN(C(=O)c3ccc(-c4c[nH]c5ccccc45)cc3)CC2)[nH]1

Ans:
1. 0.11
2. -0.48
